test system: V79; assay: Cytotoxicity against chinese hamster V79 cells assessed as cell viability after 72 hrs by MTT assay; assay type: cell-based; details: Cricetulus griseus, V79, 72 h
pIC50: −log10 of the molar value.
Provide the reported pIC50 of each item.

>>> meas_value("O=C1C(Cl)=C(NCc2cn(CCCN3C(=O)c4ccccc4C3=O)nn2)C(=O)c2ccccc21")
"< 5.00"

Would you mind listing pIC50 for each of the following compounds?
1. O=C1C(Cl)=C(NCc2cn(CCN3C(=O)c4ccccc4C3=O)nn2)C(=O)c2ccccc21
2. CC1(C)CC(Sc2ccccc2)C2=C(O1)C(=O)c1ccccc1C2=O (stereo not drawn)
3. CC1(C)OC2=C(C(=O)c3ccccc3C2=O)C1Sc1ccccc1 (stereo not drawn)
4. O=C1C(Br)=C(NCc2cn(-c3cccc([N+](=O)[O-])c3)nn2)C(=O)c2ccccc21

## Result
1. < 5.00
2. < 4.85
3. < 4.83
4. < 4.96

###

Provide the reported pIC50 of each item.
tested on: HCT-116; test: Cytotoxicity against human HCT116 cells assessed as cell viability after 72 hrs by MTT assay; type: functional, cell-based; details: HCT-116, 72 h
pIC50: −log10 of the molar value.

// below: answered molecules
>>> meas_value("O=C1C=C(NCc2cn(-c3cccc([N+](=O)[O-])c3)nn2)C(=O)c2ccccc21")
"< 4.89"
>>> meas_value("O=C1C(Cl)=C(NCc2cn(CCCCN3C(=O)c4ccccc4C3=O)nn2)C(=O)c2ccccc21")
"< 5.00"

// switching to the query molecule
## Task Need pIC50, item O=C1C(Br)=C(NCc2cn(CCN3C(=O)c4ccccc4C3=O)nn2)C(=O)c2ccccc21
## Result < 5.05

###

system: MDA-MB-435; test: Cytotoxicity against human MDA-MB-435 cells assessed as cell viability after 72 hrs by MTT assay; assay type: functional, cell-based; conditions: MDA-MB-435, 72 h
Provide the reported IC50 of each item.

>>> meas_value("O=C1C(Br)=C(NCc2cn(-c3cccc([N+](=O)[O-])c3)nn2)C(=O)c2ccccc21")
"> 11 µM"
>>> meas_value("O=C1C(Cl)=C(NCc2cn(CCCCN3C(=O)c4ccccc4C3=O)nn2)C(=O)c2ccccc21")
"> 10 µM"
>>> meas_value("O=C1C(Br)=C(NCc2cn(CN3C(=O)c4ccccc4C3=O)nn2)C(=O)c2ccccc21")
"> 10 µM"
>>> meas_value("O=C1C=C(n2cc(CNC3=C(Br)C(=O)c4ccccc4C3=O)nn2)C(=O)c2ccccc21")
"> 10 µM"
>>> meas_value("O=C1C=C(NCc2cn(CCN3C(=O)c4ccccc4C3=O)nn2)C(=O)c2ccccc21")
"> 11 µM"

Would you mind listing IC50 for each of the following compounds?
1. O=C1C=C(NCc2cn(CN3C(=O)c4ccccc4C3=O)nn2)C(=O)c2ccccc21
2. O=C1C(Cl)=C(NCc2cn(CN3C(=O)c4ccccc4C3=O)nn2)C(=O)c2ccccc21
3. O=C1C=C(NCc2cn(CCCN3C(=O)c4ccccc4C3=O)nn2)C(=O)c2ccccc21
4. O=C1C(Br)=C(NCc2cn(CCCN3C(=O)c4ccccc4C3=O)nn2)C(=O)c2ccccc21
5. O=C1C(Cl)=C(NCc2cn(CCCN3C(=O)c4ccccc4C3=O)nn2)C(=O)c2ccccc21
6. O=C1C=C(NCc2cn(CCCCN3C(=O)c4ccccc4C3=O)nn2)C(=O)c2ccccc21
7. O=C1C(Cl)=C(NCc2cn(CCN3C(=O)c4ccccc4C3=O)nn2)C(=O)c2ccccc21
8. O=C1C(Br)=C(NCc2cn(CCN3C(=O)c4ccccc4C3=O)nn2)C(=O)c2ccccc21

## Result
1. > 12 µM
2. > 11 µM
3. > 11 µM
4. > 9 µM
5. > 10 µM
6. > 10 µM
7. > 10 µM
8. > 9 µM

Would you mind listing IC50 for each of the following compounds?
1. O=C1C=C(NCc2cn(-c3cccc([N+](=O)[O-])c3)nn2)C(=O)c2ccccc21
2. CC(=O)OC[C@H]1OC(n2cc(CNC3=CC(=O)c4ccccc4C3=O)nn2)[C@H](OC(C)=O)[C@@H](OC(C)=O)[C@@H]1OC(C)=O (single isomer, unassigned)

## Result
1. > 13 µM
2. > 8 µM
